Numbers sourced from ChEMBL document CHEMBL1961873.

- assayed-target: Dual specificity protein kinase TTK (Homo sapiens);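 note: reported figures are mean TTK inhibition at 1 µM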
- particulars: at 1 µM
Categories are defined by ranges of inhibition, namely low band: < 5%; middle band: ≥ 5% and < 10%; high band: ≥ 10%

[[record]]
mol = "COC(=O)c1ccc2c(c1)C(=Cc1cc(Br)c(O)c(Br)c1)C(=O)N2"
class_label = "high band"

[[record]]
mol = "CN1CCN(C(=O)c2ccc(NC(=O)Nc3ccc(N(C)c4ccnc(Nc5ccc(CS(C)(=O)=O)cc5)n4)cc3)cc2)CC1"
class_label = "middle band"

[[record]]
mol = "Cc1cc(O)cc(C)c1/C=C/c1cncc(C(=O)N(C)C)c1"
class_label = "low band"

[[record]]
mol = "N#Cc1cccc(Nc2nccc(-c3cnn4ncccc34)n2)c1"
class_label = "high band"

[[record]]
mol = "COc1ccc2ncnc(Nc3ccc(OCc4ccccc4)cc3)c2c1"
class_label = "low band"

[[record]]
mol = "Nc1ccc(C#Cc2cncnc2Nc2ccc(OCc3cccc(F)c3)c(Cl)c2)cc1"
class_label = "middle band"

[[record]]
mol = "Cc1ccc(Nc2ccnc(Nc3cccc(C(N)=O)c3)n2)cc1O"
class_label = "high band"

[[record]]
mol = "CC(C)c1ccc2c(c1)NC(=O)/C2=N/Nc1ccc(S(N)(=O)=O)cc1"
class_label = "low band"

[[record]]
mol = "Oc1cccc(-c2nc(-c3ccccc3)[nH]c2-c2ccncc2)c1"
class_label = "high band"


----------
Reported inhibition values for a set of compounds
- assayed-target: Tyrosine-protein kinase ABL2 (Homo sapiens)
- particulars: at 1 µM
- Description: GSK_PKIS: ARG mean inhibition at 1 uM [Nanosyn]
parameter: inhibition (%)

[[record]]
mol = "CC(C)c1ccc(Nc2nccc(-c3cnn4ncccc34)n2)cc1"
unit_of_measurement = "%"
value_reported = 10.6

[[record]]
mol = "Cc1cc(-c2ccccn2)cc(C)c1/C=C/c1cncc(-c2nn[nH]n2)c1"
unit_of_measurement = "%"
value_reported = 20.2

[[record]]
mol = "NC(=O)c1cccc(Nc2nccc(Nc3cccc(F)c3)n2)c1"
unit_of_measurement = "%"
value_reported = 51.9

[[record]]
mol = "NS(=O)(=O)c1ccc(NC=C2C(=O)Nc3ccc4ncsc4c32)cc1"
unit_of_measurement = "%"
value_reported = 31.4

[[record]]
mol = "COC(=O)c1cncc(/C=C/c2c(C)cc(O)cc2C)c1"
unit_of_measurement = "%"
value_reported = 57.4

[[record]]
mol = "COC(=O)Nc1nc2cc(Oc3ccc(NC(=O)Nc4cccc(Br)c4)cc3)ccc2[nH]1"
unit_of_measurement = "%"
value_reported = 34.4

[[record]]
mol = "NS(=O)(=O)c1cccc(-c2cc3ccncc3cc2OCc2ccccc2)c1"
unit_of_measurement = "%"
value_reported = 15.2

[[record]]
mol = "CCOc1nccc2c1nc(-c1nonc1N)n2CC"
unit_of_measurement = "%"
value_reported = 11.2

[[record]]
mol = "COc1ccc(-c2nn3ncccc3c2-c2ccnc(Nc3cccc(C(F)(F)F)c3)n2)cc1"
unit_of_measurement = "%"
value_reported = 6.55

[[record]]
mol = "COc1cc(/C=N/Nc2ncnc3c2cnn3C(C)C)ccc1O"
unit_of_measurement = "%"
value_reported = 68.5

[[record]]
mol = "O=C1Nc2ccc(-c3cccnc3)cc2C1=Cc1cc(Br)c(O)c(Br)c1"
unit_of_measurement = "%"
value_reported = 5.72

[[record]]
mol = "COc1cccc(-n2nc(C)c3c(N/N=C(\\C)c4ccncc4)ncnc32)c1"
unit_of_measurement = "%"
value_reported = 5.82

[[record]]
mol = "N#Cc1c(NC(=O)c2ccccc2F)sc2c1CCCC2"
unit_of_measurement = "%"
value_reported = 1.82

[[record]]
mol = "Cc1ccc2c(-c3ccnc(Nc4ccc5c(c4)OCCO5)n3)c(-c3ccc(C(F)(F)F)cc3)nn2n1"
unit_of_measurement = "%"
value_reported = 5

[[record]]
mol = "CCS(=O)(=O)c1ccc(OC)c(Nc2ncc(-c3cccc(OC)c3)o2)c1"
unit_of_measurement = "%"
value_reported = 72.6

